Origin of measurements: ChEMBL document CHEMBL3885861

Species: Rattus norvegicus
Assay: Open TG-GATES - Regimen: Single
Format: toxicity, organism-based, Sprague-Dawley
Parameters: regimen Single, gender Male, age 6 weeks
Conditions: in vivo, po, 0 mg/kg, 24 h, tissue Blood, route gavage, dose level Control
Measured Mono accompanies every entry in the list below.
RESULT TYPE: Mono

MOLECULE | MEASURED
CCOC(=O)C(C)(C)Oc1ccc(Cl)cc1 [CLOFIBRATE] | 2.4%
C[C@H]1O[C@H](O[C@H]2[C@H](O)[C@@H](O)[C@@H](O[C@H]3[C@H](O)[C@@H](O)C(O)O[C@@H]3CO)O[C@@H]2CO)[C@H](O)[C@@H](O)[C@@H]1N[C@H]1C=C(CO)[C@@H](O)[C@H](O)[C@H]1O (some centres undefined) | 3.2%
OCCN1CCN(CCCN2c3ccccc3Sc3ccc(C(F)(F)F)cc32)CC1 | 7.4%
Cc1cccc(C)c1OCC(C)N (centres undefined) | 2%

* * *

Species: Rattus norvegicus
Assay: Open TG-GATES - Regimen: Single
Type: toxicity, organism-based, Sprague-Dawley
Set-up: regimen Single, gender Male, age 6 weeks
Conditions: in vivo, po, 0 mg/kg, 6 h, tissue Plasma, route gavage, dose level Control
Use 1 (yes) when the recorded TG is no lower than 60 mg/dL; use 0 (no) when it is lower.

COMPOUND | ANSWER LABEL
O=[N+]([O-])c1ccc(O)c([N+](=O)[O-])c1 [2,4-DINITROPHENOL] | 0 (no)
Cc1cccc(C)c1OCC(C)N (centres undefined) [MEXILETINE] | 1 (yes)
Cc1ccc2cc3c(ccc4ccccc43)c3c2c1CC3 [3-METHYLCHOLANTHRENE] | 0 (no)
C[C@H]1C(=O)O[C@@H]2CCN3CC=C(COC(=O)[C@](C)(O)[C@]1(C)O)[C@H]23 [MONOCROTALINE] | 0 (no)
CCOC(=O)C(C)(C)Oc1ccc(Cl)cc1 [CLOFIBRATE] | 1 (yes)
C=C(C)[C@H]1Cc2c(ccc3c2O[C@@H]2COc4cc(OC)c(OC)cc4[C@@H]2C3=O)O1 [ROTENONE] | 1 (yes)
C[C@H]1O[C@H](O[C@H]2[C@H](O)[C@@H](O)[C@@H](O[C@H]3[C@H](O)[C@@H](O)C(O)O[C@@H]3CO)O[C@@H]2CO)[C@H](O)[C@@H](O)[C@@H]1N[C@H]1C=C(CO)[C@@H](O)[C@H](O)[C@H]1O (some centres undefined) [ACARBOSE] | 1 (yes)
OCCN1CCN(CCCN2c3ccccc3Sc3ccc(C(F)(F)F)cc32)CC1 [FLUPHENAZINE] | 0 (no)
Cn1cc[nH]c1=S [METHIMAZOLE] | 0 (no)

* * *

Measured Na accompanies every entry in the list below.
Organism: Rattus norvegicus
Test: Open TG-GATES - Regimen: Single
Type: toxicity, organism-based, Sprague-Dawley
Design: regimen Single, gender Male, age 6 weeks
Conditions: in vivo, po, 0 mg/kg, 6 h, tissue Plasma, route gavage, dose level Control

COMPOUND | Na / meq/L
OCCN1CCN(CCCN2c3ccccc3Sc3ccc(C(F)(F)F)cc32)CC1 [FLUPHENAZINE] | 137
Cc1cccc(C)c1OCC(C)N (centres undefined) [MEXILETINE] | 140.6
C[C@H]1C(=O)O[C@@H]2CCN3CC=C(COC(=O)[C@](C)(O)[C@]1(C)O)[C@H]23 [MONOCROTALINE] | 142.6
Cn1cc[nH]c1=S [METHIMAZOLE] | 141.8
Cc1ccc2cc3c(ccc4ccccc43)c3c2c1CC3 [3-METHYLCHOLANTHRENE] | 139.9
C=C(C)[C@H]1Cc2c(ccc3c2O[C@@H]2COc4cc(OC)c(OC)cc4[C@@H]2C3=O)O1 [ROTENONE] | 139.2
C[C@H]1O[C@H](O[C@H]2[C@H](O)[C@@H](O)[C@@H](O[C@H]3[C@H](O)[C@@H](O)C(O)O[C@@H]3CO)O[C@@H]2CO)[C@H](O)[C@@H](O)[C@@H]1N[C@H]1C=C(CO)[C@@H](O)[C@H](O)[C@H]1O (some centres undefined) [ACARBOSE] | 141.6
CCOC(=O)C(C)(C)Oc1ccc(Cl)cc1 [CLOFIBRATE] | 140.4
O=[N+]([O-])c1ccc(O)c([N+](=O)[O-])c1 [2,4-DINITROPHENOL] | 138.8

* * *

Species on record: Rattus norvegicus
Test: Open TG-GATES - Regimen: Single
Type: toxicity, organism-based, Sprague-Dawley
Parameters: regimen Single, gender Male, age 6 weeks
Conditions: in vivo, po, 0 mg/kg, 9 h, tissue Blood, route gavage, dose level Control
Measured MCHC accompanies every entry in the list below.
RESULT TYPE: MCHC (%)

COMPOUND | MEASURED
C[C@H]1O[C@H](O[C@H]2[C@H](O)[C@@H](O)[C@@H](O[C@H]3[C@H](O)[C@@H](O)C(O)O[C@@H]3CO)O[C@@H]2CO)[C@H](O)[C@@H](O)[C@@H]1N[C@H]1C=C(CO)[C@@H](O)[C@H](O)[C@H]1O (some centres undefined) [ACARBOSE] | 32.3
Cc1cccc(C)c1OCC(C)N (centres undefined) [MEXILETINE] | 32.2
CCOC(=O)C(C)(C)Oc1ccc(Cl)cc1 [CLOFIBRATE] | 34.9
O=[N+]([O-])c1ccc(O)c([N+](=O)[O-])c1 [2,4-DINITROPHENOL] | 33.7
Cn1cc[nH]c1=S [METHIMAZOLE] | 34.7
C[C@H]1C(=O)O[C@@H]2CCN3CC=C(COC(=O)[C@](C)(O)[C@]1(C)O)[C@H]23 [MONOCROTALINE] | 34.2
OCCN1CCN(CCCN2c3ccccc3Sc3ccc(C(F)(F)F)cc32)CC1 [FLUPHENAZINE] | 33.1
Cc1ccc2cc3c(ccc4ccccc43)c3c2c1CC3 [3-METHYLCHOLANTHRENE] | 32.1
C=C(C)[C@H]1Cc2c(ccc3c2O[C@@H]2COc4cc(OC)c(OC)cc4[C@@H]2C3=O)O1 [ROTENONE] | 32.9

* * *

Measured TG accompanies every entry in the list below.
Species: Rattus norvegicus
Assay: Open TG-GATES - Regimen: Daily Repeat
Assay type: toxicity, organism-based, Sprague-Dawley
Design: regimen Daily Repeat, gender Male, age 6 weeks
Details: in vivo, po, 0 mg/kg, 72 h, tissue Plasma, route gavage, dose level Control, time 3 day
RESULT TYPE: TG (mg/dL)

COMPOUND | UNIT STRING | MEASURED
Cc1cccc(C)c1OCC(C)N (centres undefined) | mg/dL | 69.6
C[C@H]1C(=O)O[C@@H]2CCN3CC=C(COC(=O)[C@](C)(O)[C@]1(C)O)[C@H]23 | mg/dL | 119
O=[N+]([O-])c1ccc(O)c([N+](=O)[O-])c1 | mg/dL | 137
C[C@H]1O[C@H](O[C@H]2[C@H](O)[C@@H](O)[C@@H](O[C@H]3[C@H](O)[C@@H](O)C(O)O[C@@H]3CO)O[C@@H]2CO)[C@H](O)[C@@H](O)[C@@H]1N[C@H]1C=C(CO)[C@@H](O)[C@H](O)[C@H]1O (some centres undefined) | mg/dL | 99
CCOC(=O)C(C)(C)Oc1ccc(Cl)cc1 [CLOFIBRATE] | mg/dL | 137.2
OCCN1CCN(CCCN2c3ccccc3Sc3ccc(C(F)(F)F)cc32)CC1 | mg/dL | 96.8
Cn1cc[nH]c1=S | mg/dL | 93.8
O=C1CN(/N=C/c2ccc([N+](=O)[O-])o2)C(=O)N1 | mg/dL | 139.8
C=C(C)[C@H]1Cc2c(ccc3c2O[C@@H]2COc4cc(OC)c(OC)cc4[C@@H]2C3=O)O1 | mg/dL | 105

* * *

Organism: Rattus norvegicus
Test: Open TG-GATES - Regimen: Daily Repeat
Assay type: toxicity, organism-based, Sprague-Dawley
Parameters: regimen Daily Repeat, gender Male, age 6 weeks
Conditions: in vivo, po, 0 mg/kg, […], tissue Blood, route gavage, dose level Control, time 28 day

COMPOUND | Plat [x10_4/uL]
C[C@H]1O[C@H](O[C@H]2[C@H](O)[C@@H](O)[C@@H](O[C@H]3[C@H](O)[C@@H](O)C(O)O[C@@H]3CO)O[C@@H]2CO)[C@H](O)[C@@H](O)[C@@H]1N[C@H]1C=C(CO)[C@@H](O)[C@H](O)[C@H]1O (some centres undefined) [ACARBOSE] | 103.4
C[C@H]1C(=O)O[C@@H]2CCN3CC=C(COC(=O)[C@](C)(O)[C@]1(C)O)[C@H]23 [MONOCROTALINE] | 102
CCOC(=O)C(C)(C)Oc1ccc(Cl)cc1 [CLOFIBRATE] | 119.8
OCCN1CCN(CCCN2c3ccccc3Sc3ccc(C(F)(F)F)cc32)CC1 [FLUPHENAZINE] | 92.5
O=C1CN(/N=C/c2ccc([N+](=O)[O-])o2)C(=O)N1 [NITROFURANTOIN] | 107.4
Cc1cccc(C)c1OCC(C)N (centres undefined) [MEXILETINE] | 91.8
O=[N+]([O-])c1ccc(O)c([N+](=O)[O-])c1 [2,4-DINITROPHENOL] | 117.2
C=C(C)[C@H]1Cc2c(ccc3c2O[C@@H]2COc4cc(OC)c(OC)cc4[C@@H]2C3=O)O1 [ROTENONE] | 115
Cn1cc[nH]c1=S [METHIMAZOLE] | 97.4
